# targetOrTestSystem: trypsin
# testMethodNotes: Fab TRF, 10 ug/mL Fab
# reported TRF signal; entries follow
No unit in the answer, please; the number alone is enough.

binder	measuredProperty	measuredValue
KB_A05 (scFv, V domains shown) VH: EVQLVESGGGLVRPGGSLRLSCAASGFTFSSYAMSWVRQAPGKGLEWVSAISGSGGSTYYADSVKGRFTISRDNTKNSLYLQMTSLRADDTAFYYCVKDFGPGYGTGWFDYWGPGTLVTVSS VL: AVNWYQQLPGKAPKLLIYAADKCPRILMRCKQDSDCLAGCVCGPNGFCGGGSGIPERFSGSKSGTSASLAISGLRSEDEADYYCATWDDNLNGVVFGGGTKLTVLG	TRF signal	218000

input: Which TRF signal reading was recorded for the binder KB_A11 (scFv, V domains shown) VH: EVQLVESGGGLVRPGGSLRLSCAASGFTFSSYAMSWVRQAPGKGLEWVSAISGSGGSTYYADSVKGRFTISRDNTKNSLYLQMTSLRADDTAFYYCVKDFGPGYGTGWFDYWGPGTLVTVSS VL: YLNWYQQKPGKAPKLLIYAAEICPRILMRCKQDSDCLAGCVCGPNGFCGPSSGIPARFSGSGYGTDFTLTINNIESEDAAYYFCLQHDNFPYTFGQGTKVEIKR ?
output: 212000

input: Looking for the measured TRF signal of KB_A01 (scFv, V domains shown) VH: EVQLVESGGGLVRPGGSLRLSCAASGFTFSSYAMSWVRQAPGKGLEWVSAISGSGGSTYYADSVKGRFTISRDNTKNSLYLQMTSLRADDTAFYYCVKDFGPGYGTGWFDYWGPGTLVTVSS VL: YLNWYQQKPGKAPKLLIYAAEVCPRILMRCKQDSDCLAGCVCGPNGFCGGTSGVPSRFSGSRSGTEFTLTISSLQPEDFATYYCQKVDDYPLTFGGGTKVEIKR , can you help?
output: 55600

input: Consider the binder KB_A09 (scFv, V domains shown) VH: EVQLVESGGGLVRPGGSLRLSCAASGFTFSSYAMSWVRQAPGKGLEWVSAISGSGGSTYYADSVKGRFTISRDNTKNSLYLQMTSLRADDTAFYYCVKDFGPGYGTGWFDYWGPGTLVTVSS VL: AVNWYQQLPGKAPKLLIYAAERCPRILMRCKQDSDCLAGCVCGPNGFCGTPSGVPDRFSGSIDTFSNSASLTISGLKTEDEADYYCQSYDSSHHWVFGGGTKLTVLG and give its measured TRF signal.
output: 161000

input: Look up TRF signal for this binder: KB_A02 (scFv, V domains shown) VH: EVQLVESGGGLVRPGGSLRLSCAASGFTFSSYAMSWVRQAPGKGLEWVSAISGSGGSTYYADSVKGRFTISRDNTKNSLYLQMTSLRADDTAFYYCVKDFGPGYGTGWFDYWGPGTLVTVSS VL: AVNWYQQLPGKAPKLLIYAAAKCPRILMRCKQDSDCLAGCVCGPNGFCGGASGVSDRFSGSIDSSSNSASLTISGLKPEDEGDYYCQSYDSSNRWVFGGGTKVTVLG
output: 255000
